Where do the numbers come from? From PubChem BioAssay (Tox21).

testedTarget: Acetylcholinesterase (Homo sapiens)
protocolDescription: Acetylcholinesterase (AChE) small molecule antagonists: enzyme-based qHTS assay (AID 1347397); further: nearly all actives have a fitted effect of over 55% in size
cond: AChE enzyme activity inhibition; series mostly up to 115 µM
Activity calls are given as the source filed them. The call rests on the fitted dose curve.
The categories you may choose from are class 1 (active), class 0 (inactive)

1) O=[N+]([O-])c1ccc(CCl)cc1; class 0
2) O=C(Nc1ccc(F)cc1F)c1cccnc1Oc1cccc(C(F)(F)F)c1; class 0
3) [O]=[Cr](=[O])([OH])[O][Cr](=[O])(=[O])[OH]; class 0
4) CCNS(=O)(=O)C(F)(F)C(F)(F)C(F)(F)C(F)(F)C(F)(F)C(F)(F)C(F)(F)C(F)(F)F; class 0
5) CCC[CH2][Sn]([CH2]CCC)([O]C(C)=O)[O]C(C)=O; class 0
6) CN(C)C(=S)SSC(=S)N(C)C; class 0
7) COP(=S)(NC(C)C)Oc1ccc(C)cc1[N+](=O)[O-] (stereo unspecified); class 0
8) Cc1nn(-c2cc(NS(C)(=O)=O)c(Cl)cc2Cl)c(=O)n1C(F)F; class 0
9) O=[N+]([O-])c1ccccc1-c1ccccc1; class 0
10) N#Cc1c2ccccc2cc2ccccc12; class 0

Could you kindly confirm the outcome this assay logged for CN=C=O ? class 0

Now the molecule Cc1ccc2cc3c(ccc4ccccc43)c3c2c1CC3 class 0

And for COc1ccc2c3c1O[C@H]1[C@H](O)CC[C@H]4[C@@H](C2)N(C)CC[C@@]341 ? class 0

Let us now turn to Clc1ccc(C(Cl)(Cl)Cl)cc1Cl class 0
